Tested on: PXR homodimer (NR concentration 270 nM)
Assay: PBM binding z-score (relative to random genomic background probes); higher = stronger binding; sequences stand for … in GC…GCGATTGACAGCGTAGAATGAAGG
Label rule, in plain words: PBM binding z-score of 0.5 and up is 1, under 0.5 is 0.

seq	label-value
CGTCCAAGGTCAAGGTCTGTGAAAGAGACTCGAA	0
GCGACTGGGGCATCATCAGGTTACCATAACTTAA	0
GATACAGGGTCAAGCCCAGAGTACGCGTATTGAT	0
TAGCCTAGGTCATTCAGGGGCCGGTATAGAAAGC	0
AATACAGGGTCACTAGGCCAGAGCAGGTACGAAT	0
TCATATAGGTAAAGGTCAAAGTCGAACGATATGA	1
CGATCTAGGTCAGAACAGGACAGTGAAGGATGAT	0
ATATGTAGGTTACATACGGGTCATTCAGGCTATG	1
AGTCAAAATTCAGGACGAGGTAACGTAAAGCACG	0
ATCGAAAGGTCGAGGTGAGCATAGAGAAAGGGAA	0
AGGACGAGGGCAATGAGTTGATAGCACGGGTGGC	1
CGAACGAGGGCATGAGTTGATGGCAAATGCCGAT	0

###

Tested on: PPARg DBDmut IVT, anti-PPARg (DBD mutation: PPARg1 K132A/R137A, NR concentration 270 nM)
Assay: PBM binding z-score (relative to random genomic background probes); higher = stronger binding; sequences stand for … in GC…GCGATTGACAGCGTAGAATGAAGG
Label rule, in plain words: PBM binding z-score of 0.08 and up is 1 (yes), under 0.08 is 0 (no).

seq	test-system	label-value
AGAACGAGGGCACGCTGAGTTGATAGTAGAGTAG	PPARg DBDmut IVT, anti-PPARg (DBD mutation: PPARg1 K132A/R137A, NR concentration 270 nM)	1 (yes)
CAAACTAGTTCACGAAAGGTCAAAGTCGAATGAC	PPARg DBDmut IVT, anti-PPARg (DBD mutation: PPARg1 K132A/R137A, NR concentration 270 nM)	1 (yes)
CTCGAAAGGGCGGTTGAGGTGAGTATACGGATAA	PPARg DBDmut IVT, anti-PPARg (DBD mutation: PPARg1 K132A/R137A, NR concentration 270 nM)	0 (no)
TATACAGGGTCAAAGACCAGAGTACGAATGTCGA	PPARg DBDmut IVT, anti-PPARg (DBD mutation: PPARg1 K132A/R137A, NR concentration 270 nM)	1 (yes)
TGAATAAGGTTATAAGATCAGGGAACGTTGCAAA	PPARg DBDmut IVT, anti-PPARg (DBD mutation: PPARg1 K132A/R137A, NR concentration 270 nM)	1 (yes)
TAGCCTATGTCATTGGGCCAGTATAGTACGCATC	PPARg DBDmut IVT, anti-PPARg (DBD mutation: PPARg1 K132A/R137A, NR concentration 270 nM)	1 (yes)
CCTACTGGGCCAAAAAGGTCCTTGATGCCGATAA	PPARg DBDmut IVT, anti-PPARg (DBD mutation: PPARg1 K132A/R137A, NR concentration 270 nM)	0 (no)
AGAATGAGGTTAAGATCAGGGAGACAGAATACAT	PPARg DBDmut IVT, anti-PPARg (DBD mutation: PPARg1 K132A/R137A, NR concentration 270 nM)	1 (yes)
GCTAGTTGGTCAGTAAAAGGTCACCCACCGGTCG	PPARg DBDmut IVT, anti-PPARg (DBD mutation: PPARg1 K132A/R137A, NR concentration 270 nM)	0 (no)
GGAACGAGGGCAAAGTTGGTAGCATCTGTCGACG	PPARg DBDmut IVT, anti-PPARg (DBD mutation: PPARg1 K132A/R137A, NR concentration 270 nM)	0 (no)
TCGAGTAGGTTACCAATGGGGCATTCATCTTTCT	PPARg DBDmut IVT, anti-PPARg (DBD mutation: PPARg1 K132A/R137A, NR concentration 270 nM)	0 (no)
TCGAGTAGGTTAGTCGGGGCATTCGGCCAACATA	PPARg DBDmut IVT, anti-PPARg (DBD mutation: PPARg1 K132A/R137A, NR concentration 270 nM)	0 (no)
TCATATAGGTTATACAGGTGAAAGTCGGCATCTA	PPARg DBDmut IVT, anti-PPARg (DBD mutation: PPARg1 K132A/R137A, NR concentration 270 nM)	1 (yes)
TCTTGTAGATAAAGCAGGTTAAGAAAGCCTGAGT	PPARg DBDmut IVT, anti-PPARg (DBD mutation: PPARg1 K132A/R137A, NR concentration 270 nM)	1 (yes)
CGTCCAAGGTCATAGGAGGTCAGTGATGACAGAT	PPARg DBDmut IVT, anti-PPARg (DBD mutation: PPARg1 K132A/R137A, NR concentration 270 nM)	1 (yes)
TCTATTAGGTGATTAGGGCAACCGAAACAGCGGA	PPARg DBDmut IVT, anti-PPARg (DBD mutation: PPARg1 K132A/R137A, NR concentration 270 nM)	1 (yes)
GCAGACAGGTGAAACGCAGGTAGCTCAGGGTGGC	PPARg DBDmut IVT, anti-PPARg (DBD mutation: PPARg1 K132A/R137A, NR concentration 270 nM)	0 (no)
AGTCAAAGTTCACCTAGGTAACGTAAGATATGCT	PPARg DBDmut IVT, anti-PPARg (DBD mutation: PPARg1 K132A/R137A, NR concentration 270 nM)	1 (yes)
TAGCCTTGGTCATTCAGGGGCCAGTATAGAAAGC	PPARg DBDmut IVT, anti-PPARg (DBD mutation: PPARg1 K132A/R137A, NR concentration 270 nM)	0 (no)
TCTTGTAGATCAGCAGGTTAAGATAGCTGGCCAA	PPARg DBDmut IVT, anti-PPARg (DBD mutation: PPARg1 K132A/R137A, NR concentration 270 nM)	1 (yes)
CAAACTGGGTCAAAGGTCAAAGTCGAGCCAACCA	PPARg DBDmut IVT, anti-PPARg (DBD mutation: PPARg1 K132A/R137A, NR concentration 270 nM)	1 (yes)
GCGACTGGGGCATCAGCAGGTTGCCATAACTTAA	PPARg DBDmut IVT, anti-PPARg (DBD mutation: PPARg1 K132A/R137A, NR concentration 270 nM)	0 (no)
CCTTACGGGTCAAGGTTATAGAACGGGTGGTACG	PPARg DBDmut IVT, anti-PPARg (DBD mutation: PPARg1 K132A/R137A, NR concentration 270 nM)	0 (no)
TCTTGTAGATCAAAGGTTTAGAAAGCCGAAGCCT	PPARg DBDmut IVT, anti-PPARg (DBD mutation: PPARg1 K132A/R137A, NR concentration 270 nM)	1 (yes)
TCGAGTAGGTTAACAATGGGGCATTCAGCTTTCT	PPARg DBDmut IVT, anti-PPARg (DBD mutation: PPARg1 K132A/R137A, NR concentration 270 nM)	1 (yes)
TAGCCTAGTTCAGATCGGGCCAGTATACGCTATA	PPARg DBDmut IVT, anti-PPARg (DBD mutation: PPARg1 K132A/R137A, NR concentration 270 nM)	0 (no)

###

System: RARb homodimer (NR concentration 270 nM)
Assay: PBM binding z-score (relative to random genomic background probes); higher = stronger binding; sequences stand for … in GC…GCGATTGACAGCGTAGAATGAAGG
Label rule, in plain words: PBM binding z-score of 1 and up is Condition met, under 1 is Condition not met.

seq	test-system	label-value
CGAACTAGGTCACAGAGGTCAAAGTCCGTGCGTA	RARb homodimer (NR concentration 270 nM)	Condition met
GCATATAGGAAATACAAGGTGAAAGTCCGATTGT	RARb homodimer (NR concentration 270 nM)	Condition not met
CCTTTCGGGTCACTGACAGGTTATAGCATTTGGA	RARb homodimer (NR concentration 270 nM)	Condition met
CGTCAAAGTTCAAGGTAACGCAACAGAAAGCAGC	RARb homodimer (NR concentration 270 nM)	Condition met
TCGAGTAGGGTAGGGGCATTCAGAATGGCGTCGA	RARb homodimer (NR concentration 270 nM)	Condition not met
GGAACGGGGGCAAAGTTGATAGCATCTGTCGACG	RARb homodimer (NR concentration 270 nM)	Condition met
CTGGAAAGGTCGGTTGAGGTGAGTATACGGATAA	RARb homodimer (NR concentration 270 nM)	Condition met
CGAACTAGGTCTAGGACAGTGAATCTCCGCACGC	RARb homodimer (NR concentration 270 nM)	Condition not met
TCTATTCGTTGAAGGGCAACCGACGAGTCCGTTT	RARb homodimer (NR concentration 270 nM)	Condition met
CGTCCAAGGTCAAAGGTCAGTCAAGAGATGACGG	RARb homodimer (NR concentration 270 nM)	Condition met
CGAACTAGGTCAAGGACTGTGAATCTCCGCACGC	RARb homodimer (NR concentration 270 nM)	Condition met
GCTGGTAGATCAAGGTTAAGAAAGACTAAGCTAA	RARb homodimer (NR concentration 270 nM)	Condition not met
